experiment: Toxicity against brine shrimp; format: organism-based; details: artemia, in vivo; read-out: LD50 (the source's name)
So basically: is LC50 under 100 µM? Then Yes. Not under? Then No.

Data request: Threshold test, LC50 < 100 µM: COC(=O)[C@]12C(=O)[C@H](C)O[C@@H]3OC(=O)[C@](C)(C[C@H]4[C@]5(CO5)C5=CC(=O)OC(C)(C)C5=CC[C@@]41C)[C@@H]32 [BERKELEYACETAL B]
Data returned: No

Data request: Threshold test, LC50 < 100 µM: C=C(C)/C=C/c1ccc2c(c1OC)C(=O)OCc1cc(C)cc(O)c1O2
Data returned: No

Data request: Threshold test, LC50 < 100 µM: COc1c(/C=C/C(C)(C)OC)ccc2c1C(=O)OCc1cc(C)cc(O)c1O2
Data returned: Yes

Data request: Threshold test, LC50 < 100 µM: COc1c([C@@H](O)CC(C)C)ccc2c1C(=O)OCc1cc(C)cc(O)c1O2 [PENICILLIDE]
Data returned: No

Data request: Threshold test, LC50 < 100 µM: COc1cc2c(c(OC)c1OC)-c1ccc(OC)c(=O)cc1[C@@H](NC(C)=O)CC2 [COLCHICINE]
Data returned: Yes
